Tested on: potato leafhopper (Empoasca fabae (Harris))
procedure.text: Test C: control of potato leafhopper on Soleil bean plant, spray
Format: in vivo
details: Empoasca fabae, 144 h; sprayed at 250 ppm; 6 days
// reported mortality at 250 ppm for each item listed

| compound | mortality at 250 ppm |
| --- | --- |
| Fc1cncc(-n2cccn2)c1C(F)c1ccc(C(F)(F)F)cc1 (stereo not drawn) | ≥ 80% |
| Fc1cncc(-n2nccn2)c1C(F)c1ccc(OC(F)(F)F)cc1 (stereo not drawn) | ≥ 80% |
| FC(c1ccc(OC(F)(F)F)cc1)c1c(Cl)cncc1-n1nccn1 (stereo not drawn) | ≥ 80% |
| Fc1cncc(-c2nccs2)c1C(F)c1ccc(OC(F)(F)F)cc1 (stereo not drawn) | ≥ 80% |
| FC(c1ccc(OC(F)(F)F)cc1)c1ccncc1-n1cccn1 (stereo not drawn) | ≥ 80% |
| Fc1cncc(-c2ncco2)c1C(F)c1ccc(OC(F)(F)F)cc1 (stereo not drawn) | ≥ 80% |
| FC(c1ccc(SC(F)(F)F)cc1)c1ccncc1-n1nccn1 (stereo not drawn) | ≥ 80% |
| FC(c1ccc(OC(F)(F)F)cc1)c1ccncc1-n1nccn1 (stereo not drawn) | ≥ 80% |
| COC(c1ccc(OC(F)(F)F)cc1)c1c(F)cncc1-n1cccn1 (stereo not drawn) | ≥ 80% |

###

Test system: sweetpotato whitefly (Bemisia tabaci (Gennadius))
procedure.text: Test F: control of sweetpotato whitefly on cotton plant, spray
Assay type: in vivo
details: 312 h, sprayed at 50 ppm, 13 days
// reported mortality at 50 ppm for each item listed
readout.kind: mortality at 50 ppm

| compound | result |
| --- | --- |
| COC(c1ccc(SC(F)(F)F)cc1)c1c(F)cncc1-n1nccn1 (stereo not shown) | ≥ 70% |
| COC(c1ccc(Br)cc1)c1c(F)cncc1-n1nccn1 (stereo not shown) | ≥ 70% |
| COC(c1ccc(SC(F)F)cc1)c1c(F)cncc1-n1nccn1 (stereo not shown) | ≥ 70% |
| CO[C@H](c1ccc(OC(F)(F)F)cc1)c1c(F)cncc1-n1nccn1 | ≥ 70% |
| COC(c1ccc(SC(F)(F)F)cc1)c1c(Br)cncc1-n1nccn1 (stereo not shown) | ≥ 70% |
| Fc1cncc(-n2cccn2)c1C(F)c1ccc(SC(F)(F)F)cc1 (stereo not shown) | ≥ 70% |
| COC(c1ccc(SC(F)(F)F)cc1)c1c(Br)cncc1-n1ccnn1 (stereo not shown) | ≥ 70% |
| FC(c1ccc(OC(F)(F)F)cc1)c1c(Cl)cncc1-n1nccn1 (stereo not shown) | ≥ 70% |
| Fc1cncc(-n2nccn2)c1C(F)c1ccc(Br)cc1 (stereo not shown) | ≥ 70% |
| FC(c1ccc(OC(F)(F)F)cc1)c1c(Cl)cncc1-n1cccn1 (stereo not shown) | ≥ 70% |
| [O-][S+](c1ccc(C(F)c2c(Cl)cncc2-n2nccn2)cc1)C(F)(F)F (stereo not shown) | ≥ 70% |
| FC(c1ccc(Br)cc1)c1c(Cl)cncc1-n1nccn1 (stereo not shown) | ≥ 70% |
| FC(c1ccc(SC(F)(F)F)cc1)c1ccncc1-n1nccn1 (stereo not shown) | ≥ 70% |
| Fc1cncc(-c2ncco2)c1C(F)c1ccc(SC(F)(F)F)cc1 (stereo not shown) | ≥ 70% |
| COC(c1ccc(SC(F)(F)F)cc1)c1c(Cl)cncc1-n1nccn1 (stereo not shown) | ≥ 70% |
| FC(c1ccc(SC(F)(F)F)cc1)c1c(Cl)cncc1-n1nccn1 (stereo not shown) | ≥ 70% |

Source: patent US12568969B2
